Every entry's value here was drawn from the NIST ThermoML archive (doi:10.1021/je9010486).

# Measurement notes: cn = amount concentration of the nth substance listed, in mol/dm3
# Assay setup: 303.15 K; 101 kPa; Liquid; c1 = 0.3
Property measured: viscosity (mPa·s)
Could you give me the number in mPa·s? Just the number is fine.

| Compound | Observed result |
| --- | --- |
| OC[C@@H](O)[C@@H](O[C@H]1O[C@H](CO)[C@@H](O)[C@H](O)[C@H]1O)[C@H](O)[C@@H](O)CO [4-O-α-D-glucopyranosyl-D-glucitol] + O | 1.104 |
| OC[C@@H](O)[C@H](O)[C@@H](O)CO [xylitol] + O | 0.9121 |
| OC[C@@H](O)[C@@H](O)[C@H](O)[C@@H](O)CO [D-sorbitol] + O | 0.9329 |
| OC[C@@H](O)[C@@H](O)CO [meso-1,2,3,4-butanetetrol] + O | 0.8913 |

Now let's try a different one.
Write down viscosity measured for item OC[C@@H](O)[C@@H](O)[C@H](O)[C@H](O)CO [mannitol] + O
0.986
